Minimum Inhibitory Conc. FM3A (ID50) values by entry
# System: FM3A murine mammary tumor
# Method Description: Anticancer properties, 50% cell kill (ID50)
# Format: cell-based
Measured Quantity: Minimum Inhibitory Conc. FM3A (ID50) (µg/mL)

| Molecule | Measured Quantity | Unit Abbreviation | Recorded Measurement |
| --- | --- | --- | --- |
| Cn1cc(NC(=O)c2cc(NC(=O)c3cc(NC=O)cn3C)cn2C)cc1C(=O)NCCC(=N)N [Distamycin, distamycin, reference compound] | Minimum Inhibitory Conc. FM3A (ID50) | µg/mL | 30.6 |
| Cl.Cl.Cn1cc(NC(=O)c2cc(NC(=O)CC(=O)Nc3cc(C(=O)Nc4cc(C(=O)NCCC(=N)N)n(C)c4)n(C)c3)cn2C)cc1C(=O)NCCC(=N)N | Minimum Inhibitory Conc. FM3A (ID50) | µg/mL | 5.87 |
| Cl.Cl.Cn1cc(NC(=O)c2cc(NC(=O)CCCCCCCCC(=O)Nc3cc(C(=O)Nc4cc(C(=O)NCCC(=N)N)n(C)c4)n(C)c3)cn2C)cc1C(=O)NCCC(=N)N [m=1 n=1 R = CO[CH2]8CO] | Minimum Inhibitory Conc. FM3A (ID50) | µg/mL | 22.1 |
| Cl.Cl.Cn1cc(NC(=O)c2cc(NC(=O)c3cc(NC(=O)CCC(=O)Nc4cc(C(=O)Nc5cc(C(=O)Nc6cc(C(=O)NCCC(=N)N)n(C)c6)n(C)c5)n(C)c4)cn3C)cn2C)cc1C(=O)NCCC(=N)N | Minimum Inhibitory Conc. FM3A (ID50) | µg/mL | 4.29 |

* * *

# System: Herpes-2
# Method Description: Antiviral test, minimum inhibitory concentration in primary rabbit kidney cell cultures
# Format: cell-based
# Condition Label: 50% kill of the viruses in primary rabbit kidney cell cultures
Measured Quantity: Minimum Inhibitory Conc. Herpes-2 (µg/mL)

| Compound | Measured Quantity | Unit Abbreviation | Recorded Measurement |
| --- | --- | --- | --- |
| Cl.Cl.Cn1cc(NC(=O)c2cc(NC(=O)CCCCCCCC(=O)Nc3cc(C(=O)Nc4cc(C(=O)NCCC(=N)N)n(C)c4)n(C)c3)cn2C)cc1C(=O)NCCC(=N)N [m=1 n=1 R = CO(CH2)7 CO] | Minimum Inhibitory Conc. Herpes-2 | µg/mL | 40 |
| Cl.Cl.Cn1cc(NC(=O)c2cc(NC(=O)CCCCCCC(=O)Nc3cc(C(=O)Nc4cc(C(=O)NCCC(=N)N)n(C)c4)n(C)c3)cn2C)cc1C(=O)NCCC(=N)N [m=1 n=1 R = CO(CH2)6 CO] | Minimum Inhibitory Conc. Herpes-2 | µg/mL | 10 |
| Cn1cc(NC(=O)c2cc(NC(=O)c3cc(NC=O)cn3C)cn2C)cc1C(=O)NCCC(=N)N [Distamycin, distamycin, reference compound] | Minimum Inhibitory Conc. Herpes-2 | µg/mL | 70 |
| Cl.Cl.Cn1cc(NC(=O)c2cc(NC(=O)c3cc(NC(=O)CCC(=O)Nc4cc(C(=O)Nc5cc(C(=O)Nc6cc(C(=O)NCCC(=N)N)n(C)c6)n(C)c5)n(C)c4)cn3C)cn2C)cc1C(=O)NCCC(=N)N [m=1 n=2 R = CO(CH2)2 CO] | Minimum Inhibitory Conc. Herpes-2 | µg/mL | 4 |
| Cl.Cl.Cn1cc(NC(=O)c2cc(NC(=O)/C=C/C(=O)Nc3cc(C(=O)Nc4cc(C(=O)NCCC(=N)N)n(C)c4)n(C)c3)cn2C)cc1C(=O)NCCC(=N)N [m=1 n=1 R = COCH CHCO (trans)] | Minimum Inhibitory Conc. Herpes-2 | µg/mL | 10 |
